biological target: EGFR L858R/T790M/C797S (Homo sapiens, UniProt P00533, C797S/L858R/T790M); assay: Biochemical EGFR kinase inhibition assay (Lance Ultra TR-FRET), triple mutant L858R/T790M/C797S; conditions: ATP at Km; read-out: IC50 L858R/T790M/C797S (nM), Km ATP
Sequence (P00533 25-1210 T790M/C797S/L858R): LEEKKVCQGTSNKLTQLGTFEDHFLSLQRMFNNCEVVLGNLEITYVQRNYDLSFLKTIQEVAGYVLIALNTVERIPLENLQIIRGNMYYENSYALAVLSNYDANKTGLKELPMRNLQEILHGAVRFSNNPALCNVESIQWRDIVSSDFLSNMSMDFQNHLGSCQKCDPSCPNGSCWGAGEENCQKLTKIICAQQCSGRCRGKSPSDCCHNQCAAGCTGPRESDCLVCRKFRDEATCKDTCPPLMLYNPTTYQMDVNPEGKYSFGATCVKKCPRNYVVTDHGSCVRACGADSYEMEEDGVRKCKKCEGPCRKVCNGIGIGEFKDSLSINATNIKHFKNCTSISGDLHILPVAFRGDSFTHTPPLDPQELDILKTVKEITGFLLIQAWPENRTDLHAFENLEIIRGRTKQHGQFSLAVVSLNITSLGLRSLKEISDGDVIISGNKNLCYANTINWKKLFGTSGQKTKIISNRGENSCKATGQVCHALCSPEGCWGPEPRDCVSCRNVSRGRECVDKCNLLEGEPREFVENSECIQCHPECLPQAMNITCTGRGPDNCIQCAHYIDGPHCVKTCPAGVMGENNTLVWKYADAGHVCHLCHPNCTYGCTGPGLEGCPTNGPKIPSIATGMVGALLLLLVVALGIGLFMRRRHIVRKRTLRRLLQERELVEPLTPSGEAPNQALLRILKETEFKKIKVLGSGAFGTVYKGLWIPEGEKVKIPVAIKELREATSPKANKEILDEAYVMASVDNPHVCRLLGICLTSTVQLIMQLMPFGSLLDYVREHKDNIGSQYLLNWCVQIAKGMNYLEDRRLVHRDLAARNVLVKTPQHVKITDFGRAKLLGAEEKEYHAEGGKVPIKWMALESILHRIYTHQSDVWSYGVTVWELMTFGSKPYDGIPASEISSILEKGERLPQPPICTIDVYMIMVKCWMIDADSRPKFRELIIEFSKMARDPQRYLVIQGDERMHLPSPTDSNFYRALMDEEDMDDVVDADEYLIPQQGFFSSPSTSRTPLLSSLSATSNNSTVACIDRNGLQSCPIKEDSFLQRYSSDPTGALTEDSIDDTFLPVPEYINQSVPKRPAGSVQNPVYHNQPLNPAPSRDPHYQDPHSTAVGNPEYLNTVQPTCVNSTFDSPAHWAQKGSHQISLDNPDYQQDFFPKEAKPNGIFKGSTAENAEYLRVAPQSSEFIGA
readout-label: IC50 (nM)

In [3]: df
Out[3]:
                                    molecule                            assayed_target  measure_unit  numeric_result
 0  CC1(CO)CCN(c2cc(Nc3ccnc(-c4cnn(S(=O)(=O)C5CC5)c4)n3)ncc2C#CCCN2CCOCC2)CC1 [Example 285]  EGFR L858R/T790M/C797S (Homo sapiens, UniProt P00533, C797S/L858R/T790M)            nM             0.4
 1  CC1(CO)CCN(c2cc(Nc3ccnc(-c4cnn(S(=O)(=O)C5CC5)c4)n3)ncc2C#Cc2ccccn2)CC1 [Example 259]  EGFR L858R/T790M/C797S (Homo sapiens, UniProt P00533, C797S/L858R/T790M)            nM             0.3
 2  CC1(CO)CCN(c2cc(Nc3ccnc(-c4cnn(S(=O)(=O)C5CC5)c4)n3)ncc2C#CCCF)CC1 [Example 276]  EGFR L858R/T790M/C797S (Homo sapiens, UniProt P00533, C797S/L858R/T790M)            nM             0.1
 3  CC1(CO)CCN(c2cc(Nc3ccnc(-c4cnn(S(=O)(=O)C5CC5)c4)n3)ncc2C#CC2CCOC2)CC1 (stereo not shown) [Example 197]  EGFR L858R/T790M/C797S (Homo sapiens, UniProt P00533, C797S/L858R/T790M)            nM             0.1
 4  Cn1cc(C#Cc2cnc(Nc3ccnc(-c4cnn(S(=O)(=O)C5CC5)c4)n3)cc2N2CC3(CCNCC3)C2)cn1 [Example 155]  EGFR L858R/T790M/C797S (Homo sapiens, UniProt P00533, C797S/L858R/T790M)            nM             0.5
 5  Cn1cnc(C#Cc2cnc(Nc3ccnc(-c4cnn(S(=O)(=O)C5CC5)c4)n3)cc2N[C@H]2CC[C@@H](O)CC2)n1 [Example 167]  EGFR L858R/T790M/C797S (Homo sapiens, UniProt P00533, C797S/L858R/T790M)            nM             3.5
 6  O=S(=O)(C1CC1)n1cc(-c2nccc(Nc3cc(NC[C@H]4CC[C@@H](O)C4)c(C#Cc4cnn(C(F)F)c4)cn3)n2)cn1 [Example 306]  EGFR L858R/T790M/C797S (Homo sapiens, UniProt P00533, C797S/L858R/T790M)            nM             0.4
 7  CC1(CO)CCN(c2cc(Nc3ccnc(-c4cnn(S(=O)(=O)C5CC5)c4)n3)ncc2C#Cc2ncc(CN3CCOCC3)cn2)CC1 [Example 193]  EGFR L858R/T790M/C797S (Homo sapiens, UniProt P00533, C797S/L858R/T790M)            nM             0.2
 8  C[C@]1(O)CC[C@@H](Nc2cc(Nc3ccnc(-c4cnn(S(=O)(=O)C5CC5)c4)n3)ncc2C#Cc2cnn(CC(F)F)c2)CC1 [Example 323]  EGFR L858R/T790M/C797S (Homo sapiens, UniProt P00533, C797S/L858R/T790M)            nM             0.2
 9  CN(C)CCCn1cc(C#Cc2cnc(Nc3ccnc(-c4cnn(S(=O)(=O)C5CC5)c4)n3)cc2N2CCC3(CC2)CC(C)(O)C3)cn1 [Example 152]  EGFR L858R/T790M/C797S (Homo sapiens, UniProt P00533, C797S/L858R/T790M)            nM             0.1
10  CC1(O)CCC(Nc2cc(Nc3ccnc(-c4cnn(S(=O)(=O)C5CC5)c4)n3)ncc2C#Cc2cnn(C3CC3(F)F)c2)CC1 (stereo not shown) [Example 326]  EGFR L858R/T790M/C797S (Homo sapiens, UniProt P00533, C797S/L858R/T790M)            nM             0.6
11  O=S(=O)(C1CC1)n1cc(-c2nccc(Nc3cc(N[C@H]4CCC[C@@H](O)C4)c(C#Cc4ccc(CN5CCOCC5)cc4)cn3)n2)cn1 [Example 159]  EGFR L858R/T790M/C797S (Homo sapiens, UniProt P00533, C797S/L858R/T790M)            nM             3.4
12  CN(C)CC1(C)CCN(c2cc(Nc3ccnc(-c4cnn(S(=O)(=O)C5CC5)c4)n3)ncc2C#Cc2cnn(CC(F)F)c2)CC1 [Example 302]  EGFR L858R/T790M/C797S (Homo sapiens, UniProt P00533, C797S/L858R/T790M)            nM             0.1
